target: alpha-synuclein (natural human wildtype alpha-synuclein) (human, UniProt P37840 1-140); assay: Biacore (SPR) full kinetic analysis
# kon listing for each entry below

Below are worked cases with known answers.
[
  {
    "Binder": "Humanized 1H7 H3L3 (Hu1H7VHv3-Hu1H7VLv3) (antibody, V domains shown) VH: QVQLVQSGAEVKKPGASVKVSCKASGYTFTSYYIHWVRQAPGQGLEWMGWIYPGSGNTKYSEKFKGRATMTADTSTSTAYMELRSLRSDDTAVYYCARDGCYGFAYWGQGTLVTVSS VL: DIQLTQSPSSLSASVGDRVTITCKASQSVDYDGDSYMNWYQQKPGKAPKFLICAASNLESGVPSRFSGSGSGTDFTLTISSLQPEDFATYYCQQSNEDPFTFGQGTKLEIK",
    "Measured Result": "1.3e+06 M⁻¹ s⁻¹"
  },
  {
    "Binder": "Humanized 1H7 H4L1 (Hu1H7VHv4-Hu1H7VLv1) (antibody, V domains shown) VH: QVQLVQSGAEVKKPGASVKVSCKASGYSFTSYYIHWVRQAPGQGLEWIGWIYPGSGNTKYSEKFKGRATLTADTSTSTAYMELRSLRSDDTAVYFCARDGSYGFAYWGQGTLVTVSS VL: DIQLTQSPSSLSASVGDRVTITCKASQSVDYDGDSYMNWYQQKPGKAPKFLICAASNLESGVPSRFSGSGSGTDFTLTISSLQPEDAATYYCQQSNEDPFTFGQGTKLEIK",
    "Measured Result": "970000 M⁻¹ s⁻¹"
  }
]

// kon value for Humanized 1H7 H5L1 (Hu1H7VHv5-Hu1H7VLv1) (antibody, V domains shown) VH: QVQLVQSGAEVKKPGASVKVSCKASGYTFTSYYIHWVRQAPGQGLEWMGWIYPGSGNTKYSEKFKGRATMTADTSTSTAYMELRSLRSDDTAVYYCARDGSYGFAYWGQGTLVTVSS VL: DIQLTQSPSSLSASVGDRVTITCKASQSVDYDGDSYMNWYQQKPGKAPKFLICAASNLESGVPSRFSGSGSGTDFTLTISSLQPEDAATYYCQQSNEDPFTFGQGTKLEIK : 880000 M⁻¹ s⁻¹

// kon value for Humanized 1H7 H3L1 (Hu1H7VHv3-Hu1H7VLv1) (antibody, V domains shown) VH: QVQLVQSGAEVKKPGASVKVSCKASGYTFTSYYIHWVRQAPGQGLEWMGWIYPGSGNTKYSEKFKGRATMTADTSTSTAYMELRSLRSDDTAVYYCARDGCYGFAYWGQGTLVTVSS VL: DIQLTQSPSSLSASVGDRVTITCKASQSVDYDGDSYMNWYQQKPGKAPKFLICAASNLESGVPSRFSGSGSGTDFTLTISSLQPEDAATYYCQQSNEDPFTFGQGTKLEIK : 1.1e+06 M⁻¹ s⁻¹
